In this section we review reported abundance fitness values for a set of variants.
B1: Gamma-crystallin C, residues 4 to 79; numbered along this chain, P07315 (parent)
chain: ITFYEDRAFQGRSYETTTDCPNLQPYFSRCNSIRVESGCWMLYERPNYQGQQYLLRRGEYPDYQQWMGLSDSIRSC

variants of: B1; experiment: abundance fitness (aPCA) (normalised: wild type 0, dead -1); higher = more abundant; growth selection in yeast, the domain comes from the species named; settings: Homo sapiens
measured-endpoint: abundance fitness

| sequence-variant | observed |
| --- | --- |
| N31R | -0.013 |
| Y26M | 0.078 |
| S13F | -0.16 |
| T2C | -0.054 |
| Q49T | 0.026 |
| D62P | -0.401 |
| Q64S | -0.188 |
| D6W | -0.208 |
| S72A | -0.136 |
| R34W | -0.045 |
| R74T | 0.12 |
| D19H | -0.074 |
| G68D | -0.042 |
| D62G | -0.013 |
| V35W | -1.08 |
| R12E | 0.066 |
| F27Y | -0.468 |
| L23Q | -0.959 |
| G68C | 0.117 |
| Y26F | 0.033 |
| Y63W | -0.126 |
| Y48H | 0.042 |
| R12T | 0.024 |
| N47G | 0.08 |
| T16Y | 0.202 |
| R7V | 0.045 |
| E44V | -0.147 |
| D19E | -0.063 |
| T16Q | 0.027 |
| E5P | -0.127 |
| D19Y | -0.187 |
| Y26G | 0.044 |
| E44L | -0.006 |
| E15Y | -0.057 |
| E59W | -0.275 |
| S13Y | -0.271 |
| S70A | 0.02 |
| S32G | -0.424 |
| E5K | -0.162 |
| R74Y | 0.105 |
| E36D | 0.021 |
| F3P | -1 |
| S75C | 0.044 |
| S32L | -0.985 |
| E59D | 0.025 |
| S32H | -0.642 |
